experiment-notes: in vitro
condition-label: human, microsomes
Please provide measured microsomal CLint for the entries that follow.
Form entry: value (µL/min/mg) — number only.

microsomal CLint in this record for Cc1c(OC2CCN(CC3CCN([C@@H](Cc4ccc(F)cc4)C(=O)O)CC3)CC2)ccc(C#N)c1Cl : 6

Recorded microsomal CLint (compound N#Cc1ccccc1C[C@@H](C(=O)O)N1CCC(CN2CCC(Oc3ccc(Cl)c(Cl)c3)CC2)CC1 ): 6

###

experiment-notes: Half life in iv dosed dog
Type: ADME, organism-based, Canis lupus familiaris
condition-label: in vivo
value-type: half-life (h)
# number only, unit h dropped from output

Item: Cc1cc(Cl)ccc1OC1CCN(CC2CCN([C@@](C)(Cc3ccc(F)cc3)C(=O)O)CC2)CC1 | half-life: 12

###

experiment-notes: in vitro
condition-label: human, liver microsomes
Give measured microsomal CLint for each item. Keep answers brief.

// field: microsomal CLint; key: Cc1ccccc1C[C@@H](C(=O)O)N1CCC(CN2CCC(Oc3ccc(Cl)c(Cl)c3)CC2)CC1 ; value = < 3 µL/min/mg

Lab book: microsomal CLint of Cc1c(Cl)ccc(OC2CCN(CC3CCN([C@@H](Cc4ccc(F)cc4)C(=O)O)CC3)CC2)c1Cl noted as < 3 µL/min/mg

For Cc1ccc(C[C@@H](C(=O)O)N2CCC(CN3CCC(Oc4ccc(Cl)c(Cl)c4)CC3)CC2)cc1 the compound record lists microsomal CLint as 14 µL/min/mg

In plain terms, O=C(O)[C@@H](Cc1ccccc1)N1CCC(CN2CCC(Oc3ccc(Cl)c(Cl)c3)CC2)CC1 has a documented microsomal CLint of < 3 µL/min/mg

Input O=C(O)[C@H](Cc1ccccc1Cl)N1CCC(CN2CCC(Oc3ccc(Cl)c(Cl)c3)CC2)CC1 . Output microsomal CLint: < 5 µL/min/mg

The compound listed as O=C(O)[C@H](Cc1ccc(F)cc1)N1CCC(CN2CCC(Oc3ccc(Cl)c(Cl)c3)CC2)CC1 shows microsomal CLint equal to 4 µL/min/mg

Noted for COc1ccccc1C[C@@H](C(=O)O)N1CCC(CN2CCC(Oc3ccc(Cl)c(Cl)c3)CC2)CC1 : its microsomal CLint reads 8 µL/min/mg

Please fill in: microsomal CLint reported for O=C(O)[C@H](Cc1ccc(Cl)cc1)N1CCC(CN2CCC(Oc3ccc(Cl)c(Cl)c3)CC2)CC1 = < 3 µL/min/mg

Sure, the documented microsomal CLint for O=C(O)[C@H](Cc1ccccc1)N1CCC(CN2CCC(Oc3ccc(Cl)c(Cl)c3)CC2)CC1 is < 3 µL/min/mg

response.value for Cc1cccc(C[C@@H](C(=O)O)N2CCC(CN3CCC(Oc4ccc(Cl)c(Cl)c4)CC3)CC2)c1 (field: microsomal CLint) = < 6 µL/min/mg

// recorded microsomal CLint for O=C(O)[C@H](Cc1cccc(C(F)(F)F)c1)N1CCC(CN2CCC(Oc3ccc(Cl)c(Cl)c3)CC2)CC1 : 7 µL/min/mg

Just so you know, measured microsomal CLint for Cc1cc(F)ccc1OC1CCN(CC2CCN([C@@H](Cc3ccc(F)cc3)C(=O)O)CC2)CC1 came out at < 3 µL/min/mg

Record N#Cc1cccc(C[C@@H](C(=O)O)N2CCC(CN3CCC(Oc4ccc(Cl)c(Cl)c4)CC3)CC2)c1 . Reported microsomal CLint: < 5 µL/min/mg

Per the record, Cc1c(OC2CCN(CC3CCN([C@@H](Cc4ccc(F)cc4)C(=O)O)CC3)CC2)ccc(Cl)c1Cl has microsomal CLint of < 3 µL/min/mg

###

Record form. Attribute: half-life. Fill in for each entry.
experiment-notes: in vivo
condition-label: rat, iv

So, Cc1cc(Cl)ccc1OC1CCN(CC2CCN([C@@](C)(Cc3ccc(F)cc3)C(=O)O)CC2)CC1 ? Its half-life was 8.7 h

Input O=C(O)c1ccccc1N1CCC(CN2CCC(Oc3ccc(Cl)c(Cl)c3)CC2)CC1 . Output half-life: 4.1 h

Reported half-life of Cc1c(Cl)ccc(OC2CCN(CC3CCN([C@@H](Cc4ccc(F)cc4)C(=O)O)CC3)CC2)c1Cl : 0.8 h

Entry Cc1ccc(S(=O)(=O)NC(=O)N2CCC(N3CCC(Oc4ccc(Cl)c(Cl)c4)CC3)CC2)cc1 ; half-life = 2.7 h

For O=C(O)[C@H](Cc1ccccc1)N1CCC(CN2CCC(Oc3ccc(Cl)c(Cl)c3)CC2)CC1 the molecule record lists half-life as 12 h

half-life reported for this molecule O=C(O)C(c1ccccc1)N1CCC(N2CCC(Oc3ccc(Cl)c(Cl)c3)CC2)CC1 (racemic) : 2.4 h

The molecule listed as O=C(O)[C@@H](c1ccccc1)N1CCC(CN2CCC(Oc3ccc(Cl)c(Cl)c3)CC2)CC1 shows half-life equal to 4.8 h

# molecule Cc1c(OC2CCN(CC3CCN([C@@H](Cc4ccc(F)cc4)C(=O)O)CC3)CC2)ccc(Cl)c1Cl ; its half-life = 10 h

###

experiment-notes: physchem
condition-label: buffer, pH 7.4
Binary classification by logD, with 2 as an inclusive lower bound for true (1); all other cases are false (0).

Is it the case that O=C(O)c1cccnc1N1CCC(CN2CCC(Oc3ccc(Cl)c(Cl)c3)CC2)CC1 has logD reaching or exceeding 2? false (0)

Threshold query (logD >= 2) on Cc1ccccc1C[C@@H](C(=O)O)N1CCC(CN2CCC(Oc3ccc(Cl)c(Cl)c3)CC2)CC1 true (1)

# bool: logD of O=C(O)Cc1ccc(N2CCC(CN3CCC(Oc4ccc(Cl)c(Cl)c4)CC3)CC2)cc1 >= 2 false (0)

Entry O=C(O)[C@@H](Cc1ccccc1)N1CCC(CN2CCC(Oc3ccc(Cl)c(Cl)c3)CC2)CC1 : is its logD no less than 2? true (1)

Entry O=C(O)[C@H](Cc1ccccc1)N1CCC(CN2CCC(Oc3ccc(Cl)c(Cl)c3)CC2)CC1 : is its logD no less than 2? true (1)

State whether the measured logD reaches 2, counting equality as reaching it, for O=C(O)[C@H](Cc1ccc(Cl)cc1)N1CCC(CN2CCC(Oc3ccc(Cl)c(Cl)c3)CC2)CC1 true (1)

Quick check: does O=C(O)[C@H](Cc1ccccc1F)N1CCC(CN2CCC(Oc3ccc(Cl)c(Cl)c3)CC2)CC1 have logD greater than or equal to 2? true (1)

Record Cc1c(OC2CCN(CC3CCN([C@@](C)(Cc4ccc(F)cc4)C(=O)O)CC3)CC2)ccc(Cl)c1Cl ; criterion: logD no lower than 2. Met? true (1)

Quick check, logD >= 2? Cc1cc(OC2CCN(CC3CCN([C@@](C)(Cc4ccc(F)cc4)C(=O)O)CC3)CC2)ccc1Cl true (1)

Evaluate O=C(O)[C@H](Cc1ccc(F)cc1)N1CCC(CN2CCC(Oc3ccc(Cl)c(Cl)c3)CC2)CC1 : logD at minimum 2? true (1)

Hi, just wondering whether COc1ccccc1C[C@@H](C(=O)O)N1CCC(CN2CCC(Oc3ccc(Cl)c(Cl)c3)CC2)CC1 shows logD of 2 or higher. true (1)

Tell me whether logD is at least 2 here: O=C(O)[C@H](Cc1ccc(F)cc1)N1CCC(CN2CCC(Oc3ccc(Cl)cc3)CC2)CC1 false (0)

###

experiment-notes: in vitro
condition-label: human, microsomes
value-type: CLint scaled

CLint scaled recorded for this molecule, O=C(O)[C@@H](c1ccccc1)N1CCC(CN2CCC(Oc3ccc(Cl)c(Cl)c3)CC2)CC1 , is < 3 mL/min/kg

Lab note: measured CLint scaled of O=C(O)[C@H](c1ccccc1)N1CCC(CN2CCC(Oc3ccc(Cl)c(Cl)c3)CC2)CC1 was < 3 mL/min/kg

Field CLint scaled (entry O=C(O)C(c1ccccc1)N1CCC(CN2CCC(Oc3ccc(Cl)c(Cl)c3)CC2)CC1 (racemic) ) reads < 3 mL/min/kg

###

experiment-notes: physchem
condition-label: buffer, pH 7.4
value-type: logD
Please reply with the number alone, leaving off any unit.

Value of measured logD for the entry Cc1c(Cl)ccc(OC2CCN(CC3CCN([C@@H](Cc4ccc(F)cc4)C(=O)O)CC3)CC2)c1Cl : 3.2

// Cc1cc(F)ccc1OC1CCN(CC2CCN([C@@](C)(Cc3ccc(F)cc3)C(=O)O)CC2)CC1 : logD value = 2

Query O=C(O)[C@H](Cc1cccc(F)c1)N1CCC(CN2CCC(Oc3ccc(Cl)c(Cl)c3)CC2)CC1 yields logD of 2.7

response.value for O=C(O)Cc1cccc(N2CCC(CN3CCC(Oc4ccc(Cl)c(Cl)c4)CC3)CC2)c1 (field: logD) = 1.6

Cc1cc(Cl)ccc1OC1CCN(CC2CCN([C@@](C)(Cc3ccc(F)cc3)C(=O)O)CC2)CC1 has a reported logD of 2.6

logD in this record for O=C(O)c1ccccc1N1CCC(CN2CCC(Oc3ccc(Cl)c(Cl)c3)CC2)CC1 : 2.8

Given item N#Cc1cccc(C[C@@H](C(=O)O)N2CCC(CN3CCC(Oc4ccc(Cl)c(Cl)c4)CC3)CC2)c1 , the value recorded as its logD is 2.3

Looking up Cc1c(OC2CCN(CC3CCN([C@@H](Cc4ccc(F)cc4)C(=O)O)CC3)CC2)ccc(Cl)c1Cl , I see its logD listed as 3.5

Per the records, this molecule ( Cc1c(OC2CCN(CC3CCN([C@@H](Cc4ccc(F)cc4)C(=O)O)CC3)CC2)ccc(C#N)c1Cl ) has logD equal to 2.2

Summary for this molecule, O=C(O)c1cccc(N2CCC(CN3CCC(Oc4ccc(Cl)c(Cl)c4)CC3)CC2)c1 : logD is 2.2

Notebook: N#Cc1ccccc1C[C@@H](C(=O)O)N1CCC(CN2CCC(Oc3ccc(Cl)c(Cl)c3)CC2)CC1 , logD read as 2.1

Per the records, this molecule ( O=C(O)COc1ccccc1N1CCC(CN2CCC(Oc3ccc(Cl)c(Cl)c3)CC2)CC1 ) has logD equal to 2

The recorded logD for entry O=C(O)c1ccc(N2CCC(CN3CCC(Oc4ccc(Cl)c(Cl)c4)CC3)CC2)cc1 equals 2.3

// logD value for Cc1ccc(C[C@@H](C(=O)O)N2CCC(CN3CCC(Oc4ccc(Cl)c(Cl)c4)CC3)CC2)cc1 : 3

Item: O=C(O)c1ccc(CN2CCC(CN3CCC(Oc4ccc(Cl)c(Cl)c4)CC3)CC2)cc1 | logD: 1.1

Summary for this molecule, N#Cc1ccc(C[C@@H](C(=O)O)N2CCC(CN3CCC(Oc4ccc(Cl)c(Cl)c4)CC3)CC2)cc1 : logD is 2.2

Kindly note the recorded logD for Cc1cc(Cl)ccc1OC1CCN(CC2CCN([C@@H](Cc3ccc(F)cc3)C(=O)O)CC2)CC1 , which is 2.5

Entry under test: Cc1cccc(C[C@@H](C(=O)O)N2CCC(CN3CCC(Oc4ccc(Cl)c(Cl)c4)CC3)CC2)c1 . Its logD was 2.8
